# experimental target: T1, human B7-H4 (purified monomeric recombinant human protein, ACRO biosystems) (human, UniProt Q7Z7D3 29-258, limits assumed, chemically biotinylated (EZ-Link NHS-LC-Biotin) in the yeast display and competition experiments; non-biotinylated in SPR)
# T1 construct: Bought recombinant monomeric protein; also called B7x; B7S1
# T1 sequence: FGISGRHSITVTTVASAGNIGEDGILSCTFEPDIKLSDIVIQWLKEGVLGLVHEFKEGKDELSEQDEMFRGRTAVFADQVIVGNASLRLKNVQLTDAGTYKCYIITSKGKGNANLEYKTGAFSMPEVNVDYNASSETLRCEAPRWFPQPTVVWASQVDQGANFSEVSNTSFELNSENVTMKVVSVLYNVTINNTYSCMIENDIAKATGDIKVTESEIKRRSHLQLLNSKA
# protocol details: SPR (Carterra LSA); scFv-Fc captured on anti-human IgG Fc, antigen injected
Entries annotated with measured kon
Kindly provide the numeric value in M⁻¹ s⁻¹ only, without the unit symbol.

Known results for binders:
| binder | kon [M⁻¹ s⁻¹] |
| --- | --- |
| B09 scFv-Fc (scFv, V domains shown, Tested as scFv-Fc fusion (human IgG1 Fc, vector pDNL9) in crude yeast supernatant; Combo 2 library) VH: EVQLVESGGGVVQPGRSLRLSCAASGFTYSSRAMNWVRQAPGKGLEWVSAISSSGTTTYYADSVKGRFTISRDNSKNTLYLQMNSLRAEDTAVYYCARKRWYGMDVWGQGTTVTVSS VL: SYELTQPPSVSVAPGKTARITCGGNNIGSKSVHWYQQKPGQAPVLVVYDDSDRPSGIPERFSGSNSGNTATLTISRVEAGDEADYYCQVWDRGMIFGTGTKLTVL | 210000 |
| A05 scFv-Fc (scFv, V domains shown, Tested as scFv-Fc fusion (human IgG1 Fc, vector pDNL9) in crude yeast supernatant; Combo 1 library) VH: EVQLVESGGGVVQPGRSLRLSCAASGFTYSSRAMNWVRQAPGKGLEWVSAISGSGSNAYYADSVKGRFTISRDNSKNTLYLQMNSLRAEDTAVYYCARKRWYGMDVWGQGTTVTVSS VL: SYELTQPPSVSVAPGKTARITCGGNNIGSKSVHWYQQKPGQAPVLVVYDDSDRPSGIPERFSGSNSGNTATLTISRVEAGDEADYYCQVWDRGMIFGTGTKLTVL | 190000 |

// kon lookup, binder = A06 scFv-Fc (scFv, V domains shown, Tested as scFv-Fc fusion (human IgG1 Fc, vector pDNL9) in crude yeast supernatant; Combo 1 library) VH: EVQLVESGGGVVQPGRSLRLSCAASGFTFGDRAMNWVRQAPGKGLEWVSAISGTGATTYYADSVKGRFTISRDNSKNTLYLQMNSLRAEDTAVYYCARKRWYGMDVWGQGTTVTVSS VL: SYELTQPPSVSVAPGKTARITCGGNNIVTKSVHWYQQKPGQAPVLVVYDDSDRPSGIPERFSGSNSGNTATLTISRVEAGDEADYYCQVWDRGMIFGTGTKLTVL , result: 320000
